These entries and their values trace back to patent US10245249B2.

Test: HNO production determined via N2O quantification (GC headspace analysis)
Format: physicochemical
Conditions: PBS, 37° C., 90 minutes incubation
// reported Relative N2O Yield (90 minutes incubation) per item
ATTRIBUTE_MEASURED: Relative N2O Yield (90 minutes incubation) (%)

[
  {
    "COMPOUND": "Cc1ccc(F)cc1S(=O)(=O)NO [Compound 90]",
    "MEASURED_RESULT": 90
  },
  {
    "COMPOUND": "CN1CCOc2cc(S(=O)(=O)NO)ccc21",
    "MEASURED_RESULT": 11
  },
  {
    "COMPOUND": "O=S(=O)(NO)c1cc(S(=O)(=O)c2ccccc2)cs1",
    "MEASURED_RESULT": 96
  },
  {
    "COMPOUND": "O=S(=O)(NO)c1ccccn1 [Compound 32, N-Hydroxypyridine-2-sulfonamide]",
    "MEASURED_RESULT": 71
  },
  {
    "COMPOUND": "O=S(=O)(NO)c1sccc1Cl",
    "MEASURED_RESULT": 82
  }
]
